Recorded IC50, one value per entry.
- Test system: P388
- protocol description: Cytotoxicity against mouse P388 cells
- Type: functional, cell-based
Respond numerically; units are mg/L and should not be typed.

> print(dat)
                                   molecule  value
1  CC(C)c1oc(=O)cc2c1[C@@H](O)[C@H]1OC(=O)[C@@]3(C)[C@@H](O)[C@H]4O[C@H]4[C@@]2(C)[C@@H]13 [NAGILACTONE C]   0.33

Tell me its IC50 on P388: CC(C)[C@H]1OC(=O)C=C2C1=C[C@H]1OC(=O)[C@@]3(C)C[C@H](O)C[C@@]2(C)[C@@H]13 0.06

Answer with IC50 of CC(C)c1oc(=O)cc2c1[C@@H](O)[C@H]1OC(=O)[C@@]3(C)C[C@H]4O[C@H]4[C@@]2(C)[C@@H]13 measured for P388. 0.65

Given CC(C)[C@H]1OC(=O)C=C2[C@@]13O[C@@H]3[C@H]1OC(=O)[C@@]3(C)C[C@H](O)C[C@@]2(C)[C@@H]13 , report its IC50 on P388. 0.06
